Sourced from the supplement of paper PMC11026393

tested on: H1299; assay: difference in mean normalized H2B-mRuby nuclear fluorescence intensity relative to DMSO control (normalized intensity difference (DMSO = 0)); higher = stronger increase in transgene reporter fluorescence; conditions: concentration: 25; 24 h
Returns criterion met if the recorded difference is greater than or equal to 0.01, and criterion not met otherwise.

compound	answer label
CO[C@H]1C[C@@H]2CC[C@@H](C)[C@@](O)(O2)C(=O)C(=O)N2CCCC[C@H]2C(=O)O[C@H]([C@H](C)C[C@@H]2CC[C@@H](O)[C@H](OC)C2)CC(=O)[C@H](C)/C=C(\C)[C@@H](O)[C@@H](OC)C(=O)[C@H](C)C[C@H](C)/C=C/C=C/C=C/1C (concentration unit: nM)	criterion met
O=C(c1cc(Cc2n[nH]c(=O)c3ccccc23)ccc1F)N1CCN(C(=O)C2CC2)CC1 (concentration unit: uM)	criterion met
Cn1ncnc1[C@H]1c2n[nH]c(=O)c3cc(F)cc(c23)N[C@@H]1c1ccc(F)cc1 (concentration unit: uM)	criterion met
CO[C@H]1/C=C\C=C(/C)C(=O)NC2=CC(=O)C(NCCN(C)C)=C(C[C@@H](C)C[C@H](OC)[C@H](O)[C@@H](C)/C=C(\C)[C@@H]1OC(N)=O)C2=O (concentration unit: nM)	criterion met
Cc1nc(Nc2ncc(C(=O)Nc3c(C)cccc3Cl)s2)cc(N2CCN(CCO)CC2)n1 (concentration unit: nM)	criterion not met
N#CC[C@H](C1CCCC1)n1cc(-c2ncnc3[nH]ccc23)cn1 (concentration unit: uM)	criterion met
CC(=O)O[C@H]1C(=O)[C@@]2(C)[C@H]([C@H](OC(=O)c3ccccc3)[C@]3(O)C[C@H](OC(=O)[C@H](O)[C@@H](NC(=O)c4ccccc4)c4ccccc4)C(C)=C1C3(C)C)[C@]1(OC(C)=O)CO[C@@H]1C[C@@H]2O (concentration unit: nM)	criterion not met
O=c1[nH]cc(F)c(=O)[nH]1 (concentration unit: uM)	criterion not met
COC1=C2C[C@@H](C)C[C@H](OC)[C@H](O)[C@@H](C)/C=C(\C)[C@H](OC(N)=O)[C@@H](OC)/C=C\C=C(/C)C(=O)NC(=CC1=O)C2=O (concentration unit: nM)	criterion met
COc1cccc2c1C(=O)c1c(O)c3c(c(O)c1C2=O)C[C@@](O)(C(=O)CO)C[C@@H]3O[C@H]1C[C@H](N)[C@H](O)[C@H](C)O1 (concentration unit: nM)	criterion met
CNC(=O)c1cc(Oc2ccc(NC(=O)Nc3ccc(Cl)c(C(F)(F)F)c3)cc2)ccn1 (concentration unit: uM)	criterion not met

---

tested on: H1299; experiment: difference in mean normalized H2B-mRuby nuclear fluorescence intensity relative to DMSO control (normalized intensity difference (DMSO = 0)); higher = stronger increase in transgene reporter fluorescence; conditions: concentration: 500; 24 h
reported metric: difference

compound	reported result
CO[C@H]1/C=C\C=C(/C)C(=O)NC2=CC(=O)C(NCCN(C)C)=C(C[C@@H](C)C[C@H](OC)[C@H](O)[C@@H](C)/C=C(\C)[C@@H]1OC(N)=O)C2=O (concentration unit: nM)	0.571
COC(=O)c1ccc([C@H]2c3[nH]c4ccccc4c3C[C@H](C(=O)OC)N2C(=O)CCl)cc1 (concentration unit: nM)	0.231
Cn1c(=O)n(-c2ccc(C(C)(C)C#N)cc2)c2c3cc(-c4cnc5ccccc5c4)ccc3ncc21 (concentration unit: nM)	0.0286
Cc1[nH]c2ccccc2c1CCNCc1ccc(/C=C/C(=O)NO)cc1 (concentration unit: nM)	0.923

---

As shown below, each of these compounds has a reported difference value.
system: H1299; assay: difference in mean normalized H2B-mRuby nuclear fluorescence intensity relative to DMSO control (normalized intensity difference (DMSO = 0)); higher = stronger increase in transgene reporter fluorescence; conditions: concentration: 5; 24 h

compound	study target	difference
Cn1ncnc1[C@H]1c2n[nH]c(=O)c3cc(F)cc(c23)N[C@@H]1c1ccc(F)cc1 (concentration unit: uM)	H1299	0.00616
O=C(c1cc(Cc2n[nH]c(=O)c3ccccc23)ccc1F)N1CCN(C(=O)C2CC2)CC1 (concentration unit: uM)	H1299	0.0174
C[C@@H]1C[C@H](N)C[C@H](c2ccncc2NC(=O)c2ccc(F)c(-c3c(F)cccc3F)n2)C1	H1299	0.0409
O=C(Nc1ccc2[nH]nc(-c3ccncc3)c2c1)[C@@H]1CCN(CC(=O)N2CCN(c3ccc(-c4ncccn4)cc3)CC2)C1 (concentration unit: uM)	H1299	-0.0355

---

tested on: H1299; test: difference in mean normalized H2B-mRuby nuclear fluorescence intensity relative to DMSO control (normalized intensity difference (DMSO = 0)); higher = stronger increase in transgene reporter fluorescence; details: concentration: 100; 24 h

molecule	study target	difference
COc1cccc2c1C(=O)c1c(O)c3c(c(O)c1C2=O)C[C@@](O)(C(=O)CO)C[C@@H]3O[C@H]1C[C@H](N)[C@H](O)[C@H](C)O1 (concentration unit: nM)	H1299	0.112
CC[C@]1(O)C[C@H]2CN(CCc3c([nH]c4ccccc34)[C@@](C(=O)OC)(c3cc4c(cc3OC)N(C=O)[C@H]3[C@@](O)(C(=O)OC)[C@H](OC(C)=O)[C@]5(CC)C=CCN6CC[C@]43[C@@H]65)C2)C1 (concentration unit: nM)	H1299	-0.00267
CC(=O)O[C@H]1C(=O)[C@@]2(C)[C@H]([C@H](OC(=O)c3ccccc3)[C@]3(O)C[C@H](OC(=O)[C@H](O)[C@@H](NC(=O)c4ccccc4)c4ccccc4)C(C)=C1C3(C)C)[C@]1(OC(C)=O)CO[C@@H]1C[C@@H]2O (concentration unit: nM)	H1299	0.374
CO[C@H]1/C=C\C=C(/C)C(=O)NC2=CC(=O)C(NCCN(C)C)=C(C[C@@H](C)C[C@H](OC)[C@H](O)[C@@H](C)/C=C(\C)[C@@H]1OC(N)=O)C2=O (concentration unit: nM)	H1299	0.538
Cn1c(=O)n(-c2ccc(C(C)(C)C#N)cc2)c2c3cc(-c4cnc5ccccc5c4)ccc3ncc21 (concentration unit: nM)	H1299	0.157
COC1=C2C[C@@H](C)C[C@H](OC)[C@H](O)[C@@H](C)/C=C(\C)[C@H](OC(N)=O)[C@@H](OC)/C=C\C=C(/C)C(=O)NC(=CC1=O)C2=O (concentration unit: nM)	H1299	0.567

---

As shown below, each of these compounds has a reported difference value.
test system: H1299; experiment: difference in mean normalized H2B-mRuby nuclear fluorescence intensity relative to DMSO control (normalized intensity difference (DMSO = 0)); higher = stronger increase in transgene reporter fluorescence; conditions: concentration: 0.5; 24 h

compound	difference
CC(=O)c1c(C)c2cnc(Nc3ccc(N4CCNCC4)cn3)nc2n(C2CCCC2)c1=O (concentration unit: uM)	-0.266
O=C(/C=C/c1cccc(S(=O)(=O)Nc2ccccc2)c1)NO (concentration unit: uM)	0.231
C=CCn1c(=O)c2cnc(Nc3ccc(N4CCN(C)CC4)cc3)nc2n1-c1cccc(C(C)(C)O)n1 (concentration unit: uM)	0.108
COc1cc2nccc(Oc3ccc(NC(=O)C4(C(=O)Nc5ccc(F)cc5)CC4)cc3)c2cc1OC (concentration unit: uM)	0.0394
COc1cc([C@@H]2c3cc4c(cc3[C@@H](O[C@@H]3O[C@@H]5CO[C@@H](C)O[C@H]5[C@H](O)[C@H]3O)[C@H]3COC(=O)[C@H]23)OCO4)cc(OC)c1O (concentration unit: uM)	0.147

---

system: H1299; assay: difference in mean normalized H2B-mRuby nuclear fluorescence intensity relative to DMSO control (normalized intensity difference (DMSO = 0)); higher = stronger increase in transgene reporter fluorescence; conditions: concentration: 10; 24 h
Returns condition met if the recorded difference is greater than or equal to 0.1, and condition not met otherwise.

molecule	study target	answer label
COc1cc(Nc2ncc3c(n2)-c2ccc(Cl)cc2C(c2c(F)cccc2OC)=NC3)ccc1C(=O)O (concentration unit: nM)	H1299	condition not met
C[C@@H]1C[C@H](N)C[C@H](c2ccncc2NC(=O)c2ccc(F)c(-c3c(F)cccc3F)n2)C1	H1299	condition met
COc1cc2nccc(Oc3ccc(NC(=O)C4(C(=O)Nc5ccc(F)cc5)CC4)cc3)c2cc1OC (concentration unit: uM)	H1299	condition not met
N#CC[C@H](C1CCCC1)n1cc(-c2ncnc3[nH]ccc23)cn1 (concentration unit: uM)	H1299	condition not met
CC[C@]1(O)C[C@H]2CN(CCc3c([nH]c4ccccc34)[C@@](C(=O)OC)(c3cc4c(cc3OC)N(C=O)[C@H]3[C@@](O)(C(=O)OC)[C@H](OC(C)=O)[C@]5(CC)C=CCN6CC[C@]43[C@@H]65)C2)C1 (concentration unit: nM)	H1299	condition not met
Nc1ncn([C@@H]2O[C@H](CO)[C@@H](O)[C@H]2O)c(=O)n1 (concentration unit: uM)	H1299	condition met
Cn1c(=O)n(-c2ccc(C(C)(C)C#N)cc2)c2c3cc(-c4cnc5ccccc5c4)ccc3ncc21 (concentration unit: nM)	H1299	condition met
Cn1ncnc1[C@H]1c2n[nH]c(=O)c3cc(F)cc(c23)N[C@@H]1c1ccc(F)cc1 (concentration unit: uM)	H1299	condition not met
CC(=O)c1c(C)c2cnc(Nc3ccc(N4CCNCC4)cn3)nc2n(C2CCCC2)c1=O (concentration unit: uM)	H1299	condition not met
